meta.source: patent US5789440A

molecular target: HIV-1 Protease (Human immunodeficiency virus type 1 group M subtype B, UniProt P04585); construct: HIV-1 Protease; purchased Bachem Bioscience Inc; assay: HIV protease inhibition (undecapeptide substrate cleavage, HPLC); format: biochemical; details: 37° C., 5 min, 40 μM substrate, pH 4.7, 2% DMSO, read-out: 50% INHIBITION CONCENTRATION
Recorded Endpoint: IC50
Respond with the figure and its unit, in that order.

These recorded examples may help you get a feel for the data.
Compound	System Name	IC50
O=C1OC(CCc2ccccc2)(c2ccccc2)CC(O)=C1SCc1ccccc1-c1ccccc1 (racemic)	HIV-1 Protease (Human immunodeficiency virus type 1 group M subtype B, UniProt P04585)	270 nM
O=C1OC(c2ccc(OCc3ccccc3)cc2)CC(O)=C1SCCc1ccccc1 (stereo not shown)	HIV-1 Protease (Human immunodeficiency virus type 1 group M subtype B, UniProt P04585)	2500 nM
O=C(CCCC1(c2ccccc2)CC(O)=C(SCc2ccccc2)C(=O)O1)NCc1ccccc1 (racemic)	HIV-1 Protease (Human immunodeficiency virus type 1 group M subtype B, UniProt P04585)	220 nM

Now examine the next entry.
The compound CC(C)CCC1(c2ccccc2)CC(O)=C(SCc2ccccc2-c2ccccc2)C(=O)O1 (racemic) on HIV-1 Protease (Human immunodeficiency virus type 1 group M subtype B, UniProt P04585): IC50 was 1090 nM
